Assay: Pharmacokinetics in ICR mice
Format: in vivo
Conditions: mouse, plasma, po, 100 mg/kg, read-out: MRTINF_obs
quantity: MRT inf (h)
Number only, in h; omit the unit.

Request: # input molecule: COc1ccc(-c2csc(N/N=C(\C)c3nc4ccccc4[nH]3)n2)cc1 ; wanted: its MRT inf
Response: 4.66

###

Test: Pharmacokinetics in ICR mice
Format: in vivo
Settings: mouse, plasma, po, 100 mg/kg
Experimental: 29 the blood samples by centrifuging at 5,000 rpm under 4℃ for 5 min. […] 33 or tissue sample was added into 100 µl acetonitrile containing internal standard 34 Tolbutamide. The mixture was vortexed for 3 min and centrifuged at 13,000 rpm for 10 35 min. […] 40 were detected by MS/MS spectrometry using ESI positive mode with m/z 271.1>172.2, […] 53 Next, we evaluated the druggability of SFI003. […] 54 pharmacokinetic properties of SFI003 in mice. We measured the plasma concentration […]
quantity: Tmax (h)
Number only, in h; omit the unit.

Request: # input compound: COc1ccc(-c2csc(N/N=C(\C)c3nc4ccccc4[nH]3)n2)cc1 ; wanted: its Tmax
Response: 2

###

Test: Pharmacokinetics in ICR mice
Format: in vivo
Conditions: mouse, plasma, po, 100 mg/kg
quantity: AUC(0-t) (ng·h/mL)
Number only, in ng·h/mL; omit the unit.

Request: # input compound: COc1ccc(-c2csc(N/N=C(\C)c3nc4ccccc4[nH]3)n2)cc1 ; wanted: its AUC(0-t)
Response: 30900

###

Test: Pharmacokinetics in ICR mice
Assay type: in vivo
Settings: mouse, plasma, iv, 10 mg/kg
quantity: AUC(0-inf) (ng·h/mL)
Number only, in ng·h/mL; omit the unit.

Request: # input compound: COc1ccc(-c2csc(N/N=C(\C)c3nc4ccccc4[nH]3)n2)cc1 [SFI003] ; wanted: its AUC(0-inf)
Response: 5890

###

Test: Pharmacokinetics in ICR mice
Type: in vivo
Settings: mouse, plasma, po, 100 mg/kg
quantity: AUC(0-inf) (µg·h/mL)
Number only, in µg·h/mL; omit the unit.

Request: # input molecule: COc1ccc(-c2csc(N/N=C(\C)c3nc4ccccc4[nH]3)n2)cc1 ; wanted: its AUC(0-inf)
Response: 30.9

###

Assay: Pharmacokinetics in ICR mice
Format: in vivo
Conditions: mouse, plasma, po, 100 mg/kg
quantity: half-life
# number then unit; no other words

Request: # input molecule: COc1ccc(-c2csc(N/N=C(\C)c3nc4ccccc4[nH]3)n2)cc1 ; wanted: its half-life
Response: 1.86 h

###

Assay: Pharmacokinetics in ICR mice
Format: in vivo
Settings: mouse, plasma, oral, p.o. 100 mg/kg vs i.v. 10 mg/kg, read-out: F (bioavailability)
quantity: bioavailability

Request: # input molecule: COc1ccc(-c2csc(N/N=C(\C)c3nc4ccccc4[nH]3)n2)cc1 ; wanted: its bioavailability
Response: 52.5%

###

Experiment: Pharmacokinetics in ICR mice
Format: in vivo
Conditions: mouse, po, 100 mg/kg, plasma
Procedure: 29 the blood samples by centrifuging at 5,000 rpm under 4℃ for 5 min. […] 33 or tissue sample was added into 100 µl acetonitrile containing internal standard 34 Tolbutamide. The mixture was vortexed for 3 min and centrifuged at 13,000 rpm for 10 35 min. […] 40 were detected by MS/MS spectrometry using ESI positive mode with m/z 271.1>172.2, […] 53 Next, we evaluated the druggability of SFI003. […] 54 pharmacokinetic properties of SFI003 in mice. We measured the plasma concentration […]
quantity: Cmax (ng/mL)
Number only, in ng/mL; omit the unit.

Request: # input molecule: COc1ccc(-c2csc(N/N=C(\C)c3nc4ccccc4[nH]3)n2)cc1 ; wanted: its Cmax
Response: 4440
